# targetOrTestSystem: T1, hArtemin-MMH (human)
# T1 construct: also called hARTN.mmh; hARTN (A108-G220).mmh
# T1 chain: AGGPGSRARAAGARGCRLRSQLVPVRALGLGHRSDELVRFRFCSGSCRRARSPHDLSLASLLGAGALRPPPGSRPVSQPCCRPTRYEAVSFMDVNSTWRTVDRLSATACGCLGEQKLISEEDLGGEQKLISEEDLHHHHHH
# protocolText: BLI (Octet HTX), mAb captured on AHC tips, artemin at 3.75 nM, 25 C
measuredAttribute: Artemin Binding Response (nm)
Write the quantity with the unit trailing the number.

What value of Artemin Binding Response (nm) has been reported for the following binder? H4H33335P (antibody, human IgG4 S228P, kappa, V domains shown, Fully human antibody; also called Artemin mAb; anti-ARTN antibody) VH: EVQLVESGGGLVQPGGSLRLSCAASGFTFSSYDMHWVRQATGKGLEWVSTIDTAGDTYYPGSVKGRFTISRENAKNSLYLQMNSLRAGDTAVYYCARDGELELQGYFDLWGRGTLVTVSS VL: DIQMTQSPSSLSASVGDRVTITCRASQIISIYLNWYQQKPGKAPKLLIYAASSLQSGVPSRFSGSGSGTDFTLTISSLQPEDFATYYCQQSYTTPLTFGGGTKVEIKR 0.02 nm
